Cited source: PubChem BioAssay (NCATS)

tested on: HeLa; test: Primary qHTS to identify gynecologic anti-cancer compounds using libraries of approved drugs and bioactive compounds (AID 1345084); details: Gynecologic cancer cell panel viability, ATPlite luminescence, 48 h; series mostly up to 57.5 µM; note: nearly all actives have a fitted effect of over 55% in size
Inconclusive results are not listed. Activity calls are given as the source filed them. Calls come from the whole dose curve; as a rule, active = well fitted cell-killing curve with a large enough effect; inconclusive = small, poorly fitted or top-dose-only effect, or effect the other way; inactive = flat fitted curve, though single readings scatter.
Field 'call' accepts True = active, False = inactive

COMPOUND | ASSIGNED CLASS
NCc1c[nH]c(=S)n1[C@@H]1CCc2c(F)cc(F)cc2C1 | False
COc1cc([C@H]2c3cc(O)c(OC)cc3C[C@@H](CO[C@@H]3O[C@H](CO)[C@@H](O)[C@H](O)[C@H]3O)[C@@H]2CO)ccc1O | False
COc1c(/C=C/C(C)(C)O)ccc2c1C(=O)OCc1cc(C)cc(O)c1O2 | False
CC(/C=C/C1=CC2=CC(=O)C(C)(O)C(O)C2=CO1)=C\C(C)CCO (configuration not stated) | False
C=C(CCC1=C(C)[C@H]2[C@H](CC3[C@@H]4CC=C5C[C@@H](O)C[C@@H](O)[C@]5(C)C4[C@H](O)C[C@@]32C)O1)CO[C@@H]1O[C@H](CO)[C@@H](O)[C@H](O)[C@H]1O (some centres not stated) | True
CC1(c2nc3c(C(N)=O)cccc3[nH]2)CCCN1 (configuration not stated) | False
C[C@]12C[C@@H](O)[C@@H]3C[C@@]1(O[C@@H]1O[C@H](CO)[C@@H](O)[C@H](O)[C@H]1O)[C@]3(COC(=O)c1ccccc1)C(=O)O2 | False
CC1CCC2C(C)(C)[C@@H](O)CC[C@]2(C)C12Cc1c(O)cc3c(c1O2)CN(C(CCC(=O)O)C(=O)O)C3=O (some centres not stated) | False
COc1c2c(c(C)c3c1C(=O)OC3)OC1(C)CC(O)C34OC(OC)(CC(OC(C)=O)C3(C)C1C2)OC4(C)C (configuration not stated) | False
COc1cc(O)c2c(c1)C1=CC(O)C(O)CC1(C)OC2=O (configuration not stated) | False

Please state the recorded outcome for this compound: CC1COC(Nc2ccc3ncnc(Nc4ccc(OCc5nccs5)c(Cl)c4)c3c2)=N1 (configuration not stated)
False

Please state the recorded outcome for this compound: COC(=O)C12CCC(C)C(C)C1C1=CCC3C4(C)CCC(OC(C)=O)C(C)(C)C4CCC3(C)C1(C)CC2 (configuration not stated)
False
